Test system: NCI-H292 lung cancer cells
Assay: FDA drug screening, complete media vs cholesterol-free media without statin (TABLE 1)
Assay type: cell-based, human
Conditions: NCI-H292 cells, cholesterol-free media without statin
Structures can show the parent of a compound that is named as a salt.
Recorded Endpoint: Cholesterol-free

Molecule	Recorded Endpoint	Endpoint Value
O=c1ccc2ccc(O)c(O)c2o1 [Daphnetin]	Cholesterol-free	1.207
CN(C)CCOCC(=O)NC12CC3CC(CC(C3)C1)C2 [Tromantadine (hydrochloride)]	Cholesterol-free	0.9414
C[C@H](O)C(=O)O [L-Lactic acid]	Cholesterol-free	1.267
CCCCCOc1ccccc1/C(=C\SC)n1ccnc1 [Neticonazole (hydrochloride)]	Cholesterol-free	1.192
O=P(O)(O)C(O)(Cn1ccnc1)P(=O)(O)O [Zoledronic acid (monohydrate)]	Cholesterol-free	1.033
C[C@]12C=CC(=O)C=C1CC[C@H]1[C@@H]3C[C@@H](O)[C@](O)(C(=O)CO)[C@@]3(C)C[C@H](O)[C@@]12F [Triamcinolone]	Cholesterol-free	0.8896
C[N+](C)(C)C[C@H](O)CC(=O)[O-].Cl [L-Carnitine (hydrochloride)]	Cholesterol-free	1.478
c1ccc2c(CC3=NCCN3)cccc2c1 [Naphazoline (hydrochloride)]	Cholesterol-free	1.189
c1cc(CN2CCCNCCNCCCNCC2)ccc1CN1CCCNCCNCCCNCC1 [Plerixafor]	Cholesterol-free	1.296
